System tested: Aβ42 (Homo sapiens)
Measurement protocol: Thioflavin-T fluorescence assay, inhibition of Aβ42 aggregation
Format: biochemical
Stated conditions: 24 h, read-out: % inhibition of Aβ42 aggregation (ThT fluorescence), test peptide 10 μM (1:5), Aβ42 2 μM, co-incubated 24 h at 37 °C, λex 440 nm, λem 485 nm, mean of triplicate
Where a SMILES comes first, the peptide text is derived from it. [ ]: non-standard residue; d: D form. Aib = CC(C)(N)C(=O)O
Measured property: inhibition at 10 µM (%)

Lookup: // fetch inhibition at 10 µM given entry CC[C@H](C)[C@H](NC(=O)[C@H](NC(=O)[C@@H](N)C(C)C)C(C)C)C(=O)N[C@@H](C)C(N)=O [13a, Val-D-Val-Ile-Ala-NH2] (H-V[dV]IA-NH2)
Found: 15.7

(A) CC[C@H](C)[C@H](NC(=O)[C@@H](NC(=O)[C@@H](N)C(C)C)C(C)C)C(=O)NC(C)(C)C(N)=O [15b, Val-Val-Ile-Aib-NH2] (H-VVI[Aib]-NH2)
(B) CC[C@H](C)[C@H](NC(=O)[C@@H]1CCCN1C(=O)[C@@H]1CCCN1)C(=O)N[C@@H](C)C(N)=O [16a, Pro-Pro-Ile-Ala-NH2] (H-PPIA-NH2)
Lookup: Consider A and B . Which of these has its inhibition at 10 µM at a higher number? Indicate which entry you chose by stating its label.
Found: A
(A: 35.1%, B: 14.2%)

* * *

System tested: Aβ42 (Homo sapiens, UniProt P05067)
Sequence (P05067 672-713): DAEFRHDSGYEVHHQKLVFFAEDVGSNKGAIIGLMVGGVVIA
Measurement protocol: Thioflavin-T fluorescence assay, inhibition of Aβ42 aggregation
Assay type: biochemical
Stated conditions: 24 h, read-out: % inhibition of Aβ42 aggregation (ThT fluorescence), test peptide 10 μM (1:5), Aβ42 2 μM, co-incubated 24 h at 37 °C, λex 440 nm, λem 485 nm, mean of triplicate
Where a SMILES comes first, the peptide text is derived from it. [ ]: non-standard residue; d: D form. Nva = CCC[C@H](N)C(=O)O; Aib = CC(C)(N)C(=O)O
Measured property: inhibition at 10 µM (%)

Examples with their reported inhibition at 10 µM follow.
Lookup: State, in one line, measured inhibition at 10 µM of CC[C@H](C)[C@H](NC(=O)[C@@H](NC(=O)[C@@H](N)C(C)C)C(C)C)C(=O)N[C@@H](CC(C)C)C(N)=O [15e, Val-Val-Ile-Leu-NH2] (H-VVIL-NH2)
Found: 31.2

Lookup: Look up inhibition at 10 µM of CC[C@H](C)[C@H](NC(=O)[C@@H](NC(=O)[C@H](N)C(C)C)C(C)C)C(=O)N[C@@H](C)C(N)=O [12a, D -Val-Val-Ile-Ala-NH2] (H-[dV]VIA-NH2) and report it.
Found: 82.1

(a) CC[C@@H](C)[C@@H](NC(=O)[C@@H](N)C(C)C)C(=O)N[C@H](C(=O)N[C@@H](C)C(N)=O)[C@@H](C)CC [13b, Val-D-Ile-Ile-Ala-NH2] (H-V[dI]IA-NH2)
(b) CC[C@H](C)[C@H](NC(=O)[C@@H](NC(=O)[C@@H](N)C(C)C)C(C)C)C(=O)N[C@H](C(N)=O)C(C)C [15d, Val-Val-Ile-Val-NH2] (H-VVIV-NH2)
(c) CC[C@H](C)[C@H](NC(=O)[C@@H](NC(=O)[C@@H](N)Cc1ccccc1)C(C)C)C(=O)N[C@@H](C)C(N)=O [12b, Phe-Val-Ile-Ala-NH2] (H-FVIA-NH2)
(d) CC[C@H](C)[C@H](NC(=O)[C@@H](NC(=O)[C@@H](N)C(C)C)C(C)C)C(=O)N[C@H](C)C(N)=O [15a, Val-Val-Ile-D-Ala-NH2] (H-VVI[dA]-NH2)
(e) CC(C)C[C@H](NC(=O)[C@@H](NC(=O)[C@@H](N)C(C)C)C(C)C)C(=O)N[C@@H](C)C(N)=O [14b, Val-Val-Leu-Ala-NH2] (H-VVLA-NH2)
Lookup: Please put the entries in order of rising inhibition at 10 µM. # the answer lists labels in the order requested
Found: e, b, d, a, c

(A) CCC[C@H](N)C(=O)N[C@H](C(=O)N[C@H](C(=O)N[C@@H](C)C(N)=O)[C@@H](C)CC)C(C)C [12e, Nva-Val-Ile-Ala-NH2] (H-[Nva]VIA-NH2)
(B) CC[C@H](C)[C@H](NC(=O)[C@@H](NC(=O)[C@H]1CCCN1)C(C)C)C(=O)N[C@@H](C)C(N)=O [12d, D -Pro-Val-Ile-Ala-NH2] (H-[dP]VIA-NH2)
Lookup: Consider A and B . Which of these has its inhibition at 10 µM at a higher number? Answer by quoting the chosen item's label.
Found: A

(I) CC[C@H](C)[C@H](NC(=O)C(C)(C)NC(=O)[C@@H](N)C(C)C)C(=O)N[C@@H](C)C(N)=O [13d, Val-Aib-Ile-Ala-NH2] (H-V[Aib]IA-NH2)
(II) CC[C@@H](C)[C@@H](NC(=O)[C@@H](NC(=O)[C@@H](N)C(C)C)C(C)C)C(=O)N[C@@H](C)C(N)=O [14a, Val-Val-D-Ile-Ala-NH2] (H-VV[dI]A-NH2)
Lookup: For this pair, I and II , which shows a numerically higher inhibition at 10 µM? # answer = label of selected item
Found: I
(I: 45.3%, II: 21.8%)
